# study-target: RIPK2 and XIAP protein-protein interaction (Homo sapiens)
# Construct: the N-terminus of full-length RIPK2 was appended with the HaloTag fusion protein
# assay-text: Inhibition of the interaction of RIPK2 with XIAP (NanoBRET in HEK293T cells)
# experimental-conditions: RIPK2 HaloTag / XIAP NanoLuc, read-out: NanoBRET Scaffolding IC50
pIC50: −log10 of the molar value.
Rule: pIC50 under 8 gives F, otherwise T.

Worked cases, answers included:
compound	class-label
CNC(=O)c1ccc2nccc(Oc3c(C)cc(CC(=O)Nc4cnn(C(C)(C)C)c4)cc3C)c2c1 [Compound 506]	F
Cc1cc(CC(=O)Nc2cnn(C(C)(C)C)c2)ccc1Oc1ccnc2ccc(S(=N)(=O)C3CCC3)cc12 (single isomer, unassigned) [Compound 552]	F
CNC(=O)c1ccc2nccc(Oc3cc(F)c(CC(=O)Nc4cnn(C(C)(C)C)c4)c(F)c3C)c2c1 [Compound 504]	T

Now for another entry.
stdin: Assess whether reported pIC50 for Cc1cc(CC(=O)Nc2cnn(C(C)(C)C)c2)ccc1Oc1ncnc2ccc(CN3CCNCC3)cc12 [Compound 253] sits at 8 or higher.
stdout: F

----------
Quick reference for IC50 among some molecules
# study-target: RIPK2 enzyme (Homo sapiens, UniProt O43353)
# Construct: purchased Carna 09-128
# Sequence (O43353 1-299 limits assumed): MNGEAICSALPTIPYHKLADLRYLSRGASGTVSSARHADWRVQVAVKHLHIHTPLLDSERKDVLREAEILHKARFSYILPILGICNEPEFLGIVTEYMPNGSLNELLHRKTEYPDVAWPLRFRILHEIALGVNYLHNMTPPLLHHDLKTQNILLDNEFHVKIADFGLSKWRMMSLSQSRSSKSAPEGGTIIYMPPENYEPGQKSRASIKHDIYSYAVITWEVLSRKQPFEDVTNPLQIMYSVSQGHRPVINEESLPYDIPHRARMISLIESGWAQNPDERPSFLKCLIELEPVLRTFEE
# assay-text: RIPK2 inhibition (ADP-Glo Kinase Assay)
# Format: biochemical
# experimental-conditions: RIPK2 5 nM, ATP 150 μM, MBP substrate, read-out: RIPK2 IC50

Below, 5 molecules whose answers are already recorded.
molecule	IC50
Cc1cc(CC(=O)Nc2cnn(C(C)(C)C)c2)c(F)cc1Oc1ccnc2ccc(C(=O)NC3COC3)cc12	< 2.5 nM
Cc1cc(CC(=O)Nc2cnn(C(C)(C)C)c2)c(F)cc1Oc1ccnc2ccc(C(C)(C)C(N)=O)cc12	< 2.5 nM
CN1CCC(Oc2ccc3ncnc(Oc4ccc(CC(=O)Nc5cnn(C(C)(C)C)c5)cc4Cl)c3c2)CC1	< 2.5 nM
CNC(=O)c1cc2c(Oc3ccc(CC(=O)Nc4cnn(C(C)(C)C)c4)cc3C(F)F)ccnc2cc1OC	< 2.5 nM
Cc1cc(CC(=O)Nc2cnn(C(C)(C)C)c2)c(F)cc1Oc1ccnc2ccc(C(=O)N3[C@H](C)COC[C@@H]3C)cc12	< 2.5 nM

stdin: So what IC50 did CN1CCC(Oc2ccc3nccc(Oc4cnc(CC(=O)Nc5cc(C(C)(C)C)[nH]n5)c(F)c4)c3c2)CC1 get with RIPK2 enzyme (Homo sapiens, UniProt O43353)?
stdout: < 2.5 nM

stdin: # returns recorded IC50 (system: RIPK2 enzyme (Homo sapiens, UniProt O43353)) for Cc1cc(CC(=O)Nc2cnn(C(C)(C)C)c2)ccc1Oc1ccnc2ccc(S(=O)(=O)C3CCN(C)CC3)cc12
stdout: < 2.5 nM

stdin: Short answer please: IC50, RIPK2 enzyme (Homo sapiens, UniProt O43353), entry Cc1c(Oc2ccnc3ccc(C(N)=O)cc23)cc(F)c(CC(=O)Nc2cnn(C(C)(C)C)c2)c1F
stdout: < 2.5 nM

stdin: Lookup: IC50 / RIPK2 enzyme (Homo sapiens, UniProt O43353) / Cc1c(Oc2ccnc3ccc(C(=O)N[C@H]4C[C@@H](O)C4)cc23)ccc(CC(=O)Nc2cnn(C(C)(C)C)c2)c1F
stdout: < 2.5 nM

stdin: Could you share what IC50 was measured for CC(C)(C)n1cc(NC(=O)Cc2ccc(Oc3ncnc4ccc(C(N)=O)cc34)cc2F)cn1 , tested on RIPK2 enzyme (Homo sapiens, UniProt O43353)?
stdout: 7.4 nM

stdin: Form: Entry = Cc1cc(CC(=O)Nc2cnn(C(C)(C)C)c2)ccc1Oc1ccnc2ccc(C(=O)N3CC(C#N)C3)cc12 | System = RIPK2 enzyme (Homo sapiens, UniProt O43353) | IC50 = ____
stdout: < 2.5 nM

stdin: Lab note: need IC50 with RIPK2 enzyme (Homo sapiens, UniProt O43353) for entry CCOc1ccc2nccc(Oc3cnc(CC(=O)Nc4cnn(C(C)(C)C)c4)c(F)c3)c2c1 , please look it up.
stdout: 9.2 nM

stdin: Form field - read-out: IC50; system: RIPK2 enzyme (Homo sapiens, UniProt O43353); submitted item: CC(C)(C)n1cc(NC(=O)Cc2ncc(Oc3ncnc4ccc(F)cc34)cc2F)cn1
stdout: 99.7 nM

stdin: // fetch RIPK2 enzyme (Homo sapiens, UniProt O43353) IC50 for CC(C)(C)n1cc(NC(=O)Cc2ccc(Oc3ccnc4ccc(S(C)(=N)=O)cc34)c(Cl)c2)cn1 (single isomer, unassigned) [Compound 196]
stdout: < 2.5 nM

stdin: API: value(readout= IC50, system= RIPK2 enzyme (Homo sapiens, UniProt O43353), query= Cc1cc(CC(=O)Nc2cnn(C(C)(C)C)c2)ccc1Oc1ccnc2ccc(OC3CNC3)cc12 )
stdout: 5.9 nM

----------
# Test system: human NOD2 signaling
# assay-text: Inhibition of human NOD2 signaling in HEK-Blue-hNOD2 cells (L18-MDP stimulated, SEAP reporter)
# Type: cell-based
# experimental-conditions: Homo sapiens, HEK-Blue hNOD2, HEK-Blue-hNOD2 cells, NOD2 ligand stimulation, SEAP reporter; read-out: hNOD2 IC50
pIC50: −log10 of the molar value.
Rule: pIC50 under 9 gives -1, otherwise 1.

molecule	class-label
Cc1cc(CC(=O)Nc2cnn(C(C)(C)C)c2)ccc1Oc1ccnc2cc(F)c(C(N)=O)cc12 [Compound 489]	1

stdin: Is pIC50 for CC(C)(C)n1cc(NC(=O)Cc2ccc(Oc3ccnc4ccc(S(C)(=O)=O)cc34)cc2F)cn1 [Compound 38] at or above 9?
stdout: -1

stdin: Could you verify whether the entry Cc1cc(CC(=O)Nc2cnn(C34CC(C3)C4)c2)cc(Cl)c1Oc1ccnc2ccc(C(N)=O)cc12 [Compound 590] shows pIC50 of no less than 9?
stdout: -1

stdin: pIC50 >= 9 for CNC(=O)c1ccc2nccc(Oc3cc(F)c(CC(=O)Nc4cnn(C(C)(C)C)c4)c(F)c3C)c2c1 [Compound 504] ?
stdout: 1

----------
# System: human NOD2 signaling
# assay-text: Inhibition of human NOD2 signaling in HEK-Blue-hNOD2 cells (L18-MDP stimulated, SEAP reporter)
# Type: cell-based
# experimental-conditions: Homo sapiens, HEK-Blue hNOD2, HEK-Blue-hNOD2 cells, NOD2 ligand stimulation, SEAP reporter; read-out: hNOD2 IC50
readout: log10(IC50) (log10 of the value in nM)
Base-10 log of IC50, unit nM.

molecule	log10(IC50)
Cc1cc(CC(=O)Nc2cnn(C(C)(C)C)c2)c(F)cc1Oc1ccnc2ccc(-c3c(C)ncnc3C)cc12 [Compound 526]	1.21
Cc1cc(CC(=O)Nc2cnn(C(C)(C)C)c2)c(Cl)cc1Oc1ccnc2ccc(S(C)(=O)=O)cc12 [Compound 474]	1.98
Cc1cc(CC(=O)Nc2cnn(C(C)(C)C)c2)ccc1Oc1ccnc2ccc(C3(S(C)(=O)=O)CC3)cc12 [Compound 605]	1.19
Cc1cc(CC(=O)Nc2cnn(C(C)(C)C)c2)ccc1Oc1ccnc2ccc(C(C)(O)C(N)=O)cc12 (single isomer, unassigned) [Compound 615]	1.24

Below: the item to evaluate.
stdin: Can you share its log10(IC50)? I mean this molecule: [2H]C([2H])([2H])NC(=O)c1ccc2nccc(Oc3cc(F)c(CC(=O)Nc4cnn(C56CC(C5)C6)c4)cc3Cl)c2c1 [Compound 511]
stdout: 0.90

----------
# study-target: RIPK2 and XIAP protein-protein interaction (Homo sapiens, UniProt O43353)
# Construct: the N-terminus of full-length RIPK2 was appended with the HaloTag fusion protein
# Sequence (O43353 whole entry, the tested form may be a part): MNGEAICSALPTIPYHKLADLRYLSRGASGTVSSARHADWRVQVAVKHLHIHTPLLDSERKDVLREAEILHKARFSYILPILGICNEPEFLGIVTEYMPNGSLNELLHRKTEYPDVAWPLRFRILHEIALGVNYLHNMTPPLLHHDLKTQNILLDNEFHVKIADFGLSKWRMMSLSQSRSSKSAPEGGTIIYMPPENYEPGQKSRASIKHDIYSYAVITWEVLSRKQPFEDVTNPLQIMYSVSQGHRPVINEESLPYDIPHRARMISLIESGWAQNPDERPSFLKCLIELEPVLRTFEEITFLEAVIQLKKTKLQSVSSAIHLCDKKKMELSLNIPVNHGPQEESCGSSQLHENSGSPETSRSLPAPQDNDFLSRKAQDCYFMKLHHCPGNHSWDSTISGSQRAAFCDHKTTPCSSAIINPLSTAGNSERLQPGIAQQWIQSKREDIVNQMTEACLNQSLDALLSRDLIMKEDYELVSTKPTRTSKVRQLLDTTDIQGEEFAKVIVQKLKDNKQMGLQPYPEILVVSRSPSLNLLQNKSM
# assay-text: Inhibition of the interaction of RIPK2 with XIAP (NanoBRET in HEK293T cells)
# experimental-conditions: RIPK2 HaloTag / XIAP NanoLuc, read-out: NanoBRET Scaffolding IC50
Attribute: pIC50
The quantity pIC50 is defined as the negative base-10 logarithm of the molar concentration.

Solved cases below.
molecule	pIC50
Cc1cc(C(C)C(=O)Nc2cnn(C(C)(C)C)c2)ccc1Oc1ccnc2ccc(S(C)(=O)=O)cc12 (single isomer, unassigned)	7.41
[2H]C([2H])([2H])NC(=O)c1cc2c(Oc3c(C)cc(CC(=O)Nc4cnn(C(C)(C)C)c4)cc3C)ccnc2cc1F	7.37
Cc1cc(CC(=O)Nc2cnn(C(C)(C)C)c2)c(F)cc1Oc1ccnc2ccc(C(N)=O)cc12	7.85

stdin: Tell me reported pIC50 for CNC(=O)c1cc2c(Oc3c(C)cc(CC(=O)Nc4cnn(C(C)(C)C)c4)cc3C)ccnc2cc1F , tested with RIPK2 and XIAP protein-protein interaction (Homo sapiens, UniProt O43353).
stdout: 7.44

stdin: What reported pIC50 corresponds to Cc1cc(CC(=O)Nc2cnn(C(C)(C)C)c2)ccc1Oc1ccnc2cc(F)c(C(N)=O)cc12 on RIPK2 and XIAP protein-protein interaction (Homo sapiens, UniProt O43353)?
stdout: 8.15

stdin: Short answer please: pIC50, RIPK2 and XIAP protein-protein interaction (Homo sapiens, UniProt O43353), entry CNC(=O)c1ccc2nccc(Oc3ccc(CC(=O)Nc4cnn(C56CC(C5)C6)c4)cc3C)c2c1
stdout: 8.13
